Target: T1, human 4-1BB, full length, on transfected cells (human, UniProt Q07011 24-255)
T1 construct: whole, on cells; also called CHOK1-h4-1BB
T1 sequence (Q07011 24-255): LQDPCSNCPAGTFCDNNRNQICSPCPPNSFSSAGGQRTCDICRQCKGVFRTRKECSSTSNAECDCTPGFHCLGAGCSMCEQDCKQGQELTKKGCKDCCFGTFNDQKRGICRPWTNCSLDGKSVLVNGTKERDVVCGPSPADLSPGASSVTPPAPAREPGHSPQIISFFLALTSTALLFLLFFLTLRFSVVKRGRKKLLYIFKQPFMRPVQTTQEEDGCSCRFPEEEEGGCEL
Test: FACS, CHOK1-h4-1BB cells; Ab 0.0032 ug/ml
quantity.kind: average fluorescence intensity (MFI)
Expressed in MFI, but write only the number.

Reported average fluorescence intensity for 11H10C9 (antibody, V domains shown) VH: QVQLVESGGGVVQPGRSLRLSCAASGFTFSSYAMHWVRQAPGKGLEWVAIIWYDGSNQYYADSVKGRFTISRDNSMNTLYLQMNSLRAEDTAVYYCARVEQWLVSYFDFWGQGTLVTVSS VL: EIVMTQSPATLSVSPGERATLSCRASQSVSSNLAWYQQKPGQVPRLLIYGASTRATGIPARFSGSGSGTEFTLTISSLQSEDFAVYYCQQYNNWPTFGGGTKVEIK : what is it?
18.3

Reported average fluorescence intensity for 172E3E3 (antibody, V domains shown) VH: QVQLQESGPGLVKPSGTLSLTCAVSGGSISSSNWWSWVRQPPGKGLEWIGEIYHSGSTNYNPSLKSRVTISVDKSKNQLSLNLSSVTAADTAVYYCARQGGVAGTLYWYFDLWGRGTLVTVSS VL: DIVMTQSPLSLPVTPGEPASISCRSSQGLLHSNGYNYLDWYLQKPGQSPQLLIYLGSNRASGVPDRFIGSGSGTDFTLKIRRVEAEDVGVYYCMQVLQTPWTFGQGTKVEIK : what is it?
13
